Test system: human beta-coronavirus OC43
ASSAY_EXPLANATION: OC43 Coronavirus Assay in HeLa cells (antiviral, cytopathic effect, cell-titer-glo)
Assay type: cell-based
CONDITION_SET: Betacoronavirus 1; Table B; OC43 coronavirus in HeLa cells, class symbols; read-out: EC50
READOUT: EC50

Record request: EC50 value, item C[C@H](NC(=O)Oc1ccc(F)cc1)C(=O)N(C)[C@@H](CC1CC1)C(=O)N1C[C@@]2(C[C@H]1C#N)Oc1cc(F)cc(F)c1NC2=O [Compound 119]
100 to 1000 nM

----------
TARGET_OF_ASSAY: SARS-Cov-2 3CLpro (Severe acute respiratory syndrome coronavirus 2)
ASSAY_EXPLANATION: biochemical
CONDITION_SET: Table A, class symbols, read-out: SARS-Cov-2 (IC50)
READOUT: IC50

What value of IC50 has been reported for the following compound? CC(C)C[C@@H](C(=O)N1C[C@]2(C[C@H]1C#N)C(=O)Nc1ccccc1N2C)N(C)C(=O)[C@H](C)NC(=O)C(F)(F)F
20 to 200 nM

# query: IC50 of entry CN(C(=O)[C@H](CC1CC1)NC(=O)C(F)(F)F)[C@@H](CC1CC1)C(=O)N1C[C@@]2(C[C@H]1C#N)Oc1cc(F)ccc1CNC2=O
< 20 nM

Tell me the measured IC50 of C[C@H](NC(=O)C(F)(F)Cl)C(=O)N(C)[C@@H](CC1CC1)C(=O)N1C[C@@]2(CC1C#N)Oc1cccnc1NC2=O (stereo partly drawn) , please.
< 20 nM

So what's the measured IC50 for this one? C[C@@H](OC(C)(C)C)[C@H](NC(=O)C(F)(F)F)C(=O)N(C)[C@@H](CC1CC1)C(=O)N1C[C@@]2(C[C@H]1C#N)Oc1cccnc1NC2=O
< 20 nM

Could you share which IC50 value was measured for CN(C(=O)[C@H](CC1CC1)NC(=O)C(F)(F)F)[C@@H](CC1CC1)C(=O)N1C[C@@]2(C[C@H]1C#N)Oc1cc(F)cc(F)c1NC2=O ?
< 20 nM

Looking for the measured IC50 of CN(C(=O)[C@H](CC1CC1)NC(=O)C(F)(F)F)[C@@H](CC1CC1)C(=O)N1C[C@@]2(C[C@H]1C#N)Oc1ncccc1NC2=O , can you help?
< 20 nM

----------
Give IC50 for every item shown.
TARGET_OF_ASSAY: SARS-Cov-2 3CLpro (Severe acute respiratory syndrome coronavirus 2, UniProt P0DTD1)
ASSAY_EXPLANATION: biochemical
CONDITION_SET: Table A, class symbols, read-out: SARS-Cov-2 (IC50)

Given C[C@H](NC(=O)C(F)(F)F)C(=O)N(C)[C@@H](CC1CC1)C(=O)N1C[C@@]2(C[C@H]1C#N)Oc1cc(Cl)cnc1NC2=O , state its recorded IC50.
< 20 nM

Requested field: IC50. Item: CN(C)C(=O)c1ccc2c(c1)O[C@@]1(C[C@@H](C#N)N(C(=O)[C@H](CC3CC3)N(C)C(=O)[C@H](CC3CC3)NC(=O)C(F)(F)F)C1)C(=O)N2
< 20 nM

Reported IC50, compound CC(C)C[C@](C)(NC(=O)C(F)(F)F)C(=O)N(C)[C@@H](CC1CC1)C(=O)N1C[C@@]2(C[C@H]1C#N)Oc1cc(F)cc(F)c1NC2=O : ____
20 to 200 nM

----------
ASSAY_EXPLANATION: Cytotoxicity in HeLa cells without addition of OC43 virus (in parallel)
CONDITION_SET: human, HeLa cells, without OC43 virus
READOUT: CC50 at 6 days

I have this compound here, CN(C(=O)[C@H](CC1CC(F)(F)C1)NC(=O)C(F)(F)F)[C@@H](CC1CC1)C(=O)N1C[C@@]2(C[C@H]1C#N)Oc1cccnc1NC2=O [Compound 187] , and I need its recorded CC50 at 6 days.
> 10 µM

Can you look up the measured CC50 at 6 days of CN(C(=O)[C@H](CC1CC1)NS(=O)(=O)c1ccc(F)cc1)[C@@H](CC1CC1)C(=O)N1C[C@@]2(C[C@H]1C#N)Oc1cccnc1NC2=O [Compound 197] for me?
> 10 µM

If you can, please state the reported CC50 at 6 days value of C[C@@H](OC(C)(C)C)[C@H](NC(=O)C(F)(F)F)C(=O)N(C)[C@@H](CC1CC1)C(=O)N1C[C@@]2(C[C@H]1C#N)Oc1cc(F)cc(F)c1NC2=O [Compound 159] .
> 10 µM

Would you mind telling me what CC50 at 6 days value was observed for CC(C)C[C@@H](C(=O)N1C[C@@]2(C[C@H]1C#N)Oc1cc(F)cc(F)c1NC2=O)N(C)C(=O)[C@H](CC1CC1)NC(=O)C(F)(F)F [Example 36] ?
> 10 µM

Any idea what CC50 at 6 days was measured for C[C@H](NC(=O)C(F)(F)F)C(=O)N(C)[C@@H](Cc1ccc(F)cc1)C(=O)N1C[C@@]2(C[C@H]1C#N)Oc1cccnc1NC2=O [Compound 181] ?
> 10 µM

Looking for the measured CC50 at 6 days of C[C@H](NC(=O)C(F)(F)F)C(=O)N(C)[C@@H](CC1CC1)C(=O)N1C[C@@]2(C[C@H]1C#N)Oc1cccc(F)c1NC2=O [Compound 98] , can you help?
> 10 µM

I am curious: what CC50 at 6 days value has been reported for C[C@H](NC(=O)C(F)(F)F)C(=O)N(C)[C@@H](CC(C)(C)F)C(=O)N1C[C@@]2(C[C@H]1C#N)Oc1cc(F)cc(F)c1NC2=O [Compound 61] ?
> 10 µM

Recorded CC50 at 6 days of CN(C(=O)[C@H](CC1CC1)NC(=O)C(F)(F)F)[C@@H](CC1CC1)C(=O)N1C[C@@]2(C[C@H]1C#N)Oc1cccc(F)c1CNC2=O [Compound 141] , please.
> 10 µM

For the compound C[C@H](OCc1ccccc1)[C@H](NC(=O)C(F)(F)F)C(=O)N(C)[C@@H](CC1CC1)C(=O)N1C[C@@]2(C[C@H]1C#N)Oc1cccnc1NC2=O [Compound 192] , what CC50 at 6 days is on record?
> 10 µM

Reported CC50 at 6 days for C[C@H](NC(=O)C(F)(F)F)C(=O)N(C)[C@@H](CC1CC1)C(=O)N1C[C@@]2(C[C@H]1C#N)Oc1ncccc1NC2=O [Compound 209] : what is it?
> 10 µM

Given the compound CN(C(=O)[C@H](CC1CC1)NC(=O)C(F)(F)F)[C@@H](CC1CC1)C(=O)N1C[C@@]2(C[C@H]1C#N)Oc1cnccc1NC2=O [Compound 73] , what is its reported CC50 at 6 days?
> 10 µM

Using the record for CN(C(=O)[C@@H](Cc1ccc(F)cc1)NC(=O)C(F)(F)F)[C@@H](CC1CC1)C(=O)N1C[C@@]2(C[C@H]1C#N)Oc1cccnc1NC2=O [Compound 200] , report its CC50 at 6 days.
> 10 µM

What value of measured CC50 at 6 days is listed for CN(C(=O)[C@H](CC1CCC1)NC(=O)C(F)(F)F)[C@@H](CC1CC1)C(=O)N1C[C@@]2(C[C@H]1C#N)Oc1cc(F)cc(F)c1NC2=O [Compound 87] ?
> 10 µM

So what does the record say about CC50 at 6 days for CC(C)C[C@@H](C(=O)N1C[C@]2(C[C@H]1C#N)C(=O)Nc1ccccc1C2(C)O)N(C)C(=O)[C@H](C)NC(=O)C(F)(F)F (some centres unmarked) [Compound 80] ?
> 10 µM

Field request: CC50 at 6 days | item: CC(C)C[C@@H](C(=O)N1C[C@@]2(C[C@H]1C#N)Oc1cc(F)cc(F)c1NC2=O)N(C)C(=O)[C@H](C)NC(=O)C1(F)CC1 [Compound 71]
> 10 µM

What does the record list as CC50 at 6 days for C[C@H](NC(=O)C(F)(F)F)C(=O)N(C)[C@@H](CC1CC1)C(=O)N1C[C@@]2(C[C@H]1C#N)Oc1cc(Cl)cnc1NC2=O [Compound 147] ?
> 10 µM

Dear colleague, I am looking for the recorded CC50 at 6 days of the following compound: C[C@H](NC(=O)C(F)(F)F)C(=O)N(C)[C@@H](COC(C)(C)C)C(=O)N1C[C@@]2(C[C@H]1C#N)Oc1cc(F)cc(F)c1NC2=O [Compound 115]
> 10 µM

Given the compound CN(C)C(=O)c1ccc2c(c1)O[C@@]1(C[C@@H](C#N)N(C(=O)[C@H](CC3CC3)N(C)C(=O)[C@H](CC3CC3)NC(=O)C(F)(F)F)C1)C(=O)N2 [Compound 112] , what is its reported CC50 at 6 days?
> 10 µM

Quick one: CC50 at 6 days for CN(C(=O)[C@@H](COC(C)(C)C)NC(=O)C(F)(F)F)[C@@H](CC1CC1)C(=O)N1C[C@@]2(C[C@H]1C#N)Oc1cccnc1NC2=O [Compound 156] ?
> 10 µM

I'd like to know its CC50 at 6 days. The compound in question is CC(C)C[C@@H](C(=O)N1C[C@@]2(CC1C#N)Oc1cc(F)cc(F)c1NC2=O)N(C)C(=O)[C@H](C)NC(=O)C(F)(F)F (some centres unmarked) [Compound 51]
> 10 µM

# get_value(readout='CC50 at 6 days', item= CC(C)C[C@@H](C(=O)N1C[C@]2(C[C@H]1C#N)C(=O)Nc1ccccc1C2(F)F)N(C)C(=O)[C@H](C)NC(=O)C(F)(F)F [Example 43] )
> 10 µM

Would you mind telling me what CC50 at 6 days value was observed for CN(C(=O)[C@H](CC1CC1)NC(=O)C1(F)CC1)[C@@H](CC1CC1)C(=O)N1C[C@@]2(C[C@H]1C#N)Oc1ncccc1NC2=O [Compound 185] ?
> 10 µM

For the compound shown here, COC1CNC(=O)[C@]12C[C@@H](C#N)N(C(=O)[C@H](CC1CC1)N(C)C(=O)[C@H](CC1CC1)NC(=O)C(F)(F)F)C2 (some centres unmarked) [Compound 225] , give the reported CC50 at 6 days.
> 10 µM

Where do the numbers come from? From patent US20240199647A1.
